These data points were gathered from patent US20230263822A1.

- System: human Factor 11 mRNA
- experiment: Dose-dependent inhibition of human Factor 11 in HepG2 cells, lipofectin 9.375-75 nM (Example 4)
- Format: cell-based
Strand notation (5' to 3'): a small letter for the sugar, then the base; units joined by * are phosphorothioate-linked, units joined directly phosphodiester-linked; [ ] holds rarer units or linkages, { } end groups; capitals alone tell only the bases. e = 2'-O-(2-methoxyethyl) (MOE); [5mC] = 5-methylcytosine; d = 2'-deoxy (DNA)
measured_property: IC50 (µM)
Give a bare numeral; the unit µM is implied.

Briefly, IC50 measured for 416973 (antisense eT*eT*dA*dT*dG*d[5mC]*d[5mC]*d[5mC]*dT*dT*d[5mC]*dA*dT*dG*dT*e[5mC]*eT*eA*eG*eG) [compound 416973] : 0.003

Briefly, IC50 measured for 413476 (antisense eT*eT*eG*eA*eG*dA*dT*dT*d[5mC]*dT*dT*dT*dG*dG*dG*e[5mC]*e[5mC]*eA*eT*eT) [compound 413476] : 0.021

Briefly, IC50 measured for 416827 (antisense eT*eA*eT*eG*e[5mC]*d[5mC]*d[5mC]*dT*dT*d[5mC]*dA*dT*dG*dT*d[5mC]*eT*eA*eG*eG*eT) [compound 416827] : 0.023

Briefly, IC50 measured for 416922 (antisense eG*e[5mC]*eA*d[5mC]*dA*dG*dT*dT*dT*d[5mC]*dT*dG*dG*d[5mC]*dA*dG*dG*e[5mC]*e[5mC]*eT) [compound 416922] : 0.036

Briefly, IC50 measured for 416993 (antisense e[5mC]*eT*dT*dT*dG*dA*dG*dA*dT*dT*d[5mC]*dT*dT*dT*dG*eG*eG*e[5mC]*e[5mC]*eA) [compound 416993] : 0.036
